# assay.protocol: NFkB reporter suppression in cystic fibrosis bronchial cells – cell-based, uHTS hits, panel, cytotoxicity readout, dose response (AID 624344)
# condition.notes: CF bronchial epithelial cells, PAF-induced NFkB reporter inhibition; with PAF, mean of runs
Active and inactive are the calls of the source. How the calls were made is not given here.
A correct response names exactly one class from Yes for active, No for inactive

IN: I'd appreciate the recorded outcome for `Cc1ccc2nc(C(F)(F)F)c(C#N)c(N)c2c1` from this test.
OUT: Yes

IN: I'd appreciate the recorded outcome for `O=C(NCCC1=CCCCC1)c1coc(=O)c(Br)c1` from this test.
OUT: Yes

IN: I'd appreciate the recorded outcome for `Cn1ncc2c(O/N=C(\N)c3ccc(C(C)(C)C)cc3)ncnc21` from this test.
OUT: Yes

IN: I'd appreciate the recorded outcome for `c1ccc2c(c1)Nc1ccncc1S2` from this test.
OUT: Yes

IN: I'd appreciate the recorded outcome for `COc1ccc(Nc2nc(-c3cccs3)nc3ccccc23)cc1S(=O)(=O)N1CCOCC1` from this test.
OUT: Yes

IN: I'd appreciate the recorded outcome for `COc1ccc(CN(C(=O)CSc2nnc(-c3c[nH]c4ccccc34)o2)c2ccc(F)cc2)cc1OC` from this test.
OUT: Yes

IN: I'd appreciate the recorded outcome for `Oc1ccc(Nc2ncnc3scc(-c4ccccc4)c23)cc1` from this test.
OUT: Yes

IN: I'd appreciate the recorded outcome for Cc1cnc(NC(=O)C2CC(=O)N(c3cccc(Cl)c3)C2)s1 (centres undefined) from this test.
OUT: Yes

IN: I'd appreciate the recorded outcome for O=[N+]([O-])C1C(c2ccccc2)C12c1ccccc1-c1ccccc12 (centres undefined) from this test.
OUT: No

IN: I'd appreciate the recorded outcome for `O=c1c(-c2c(O)cc(O)c3c2O[C@H](c2ccc(O)cc2)CC3)c(-c2ccc(O)cc2)oc2cc(O)cc(O)c12` from this test.
OUT: Yes

IN: I'd appreciate the recorded outcome for `CCOC(=O)C1=C(CC)Nc2ccccc2N=C1NC(=O)Nc1ccc(Cl)c(Cl)c1` from this test.
OUT: Yes

IN: I'd appreciate the recorded outcome for CCOC(=O)c1[nH]c2c(c1C)C(=O)CC(c1ccco1)C2 (centres undefined) from this test.
OUT: No

IN: I'd appreciate the recorded outcome for `Cc1ccc2[nH]cc(C(=O)CCl)c2c1` from this test.
OUT: Yes

IN: I'd appreciate the recorded outcome for `O=C(Nc1cccc2[nH]ncc12)c1ccc(F)cc1` from this test.
OUT: Yes

IN: I'd appreciate the recorded outcome for `O=S(=O)(Nc1cccc2cccnc12)c1ccccc1` from this test.
OUT: Yes

IN: I'd appreciate the recorded outcome for `Oc1ccc(Br)cc1-c1nc2cnccn2c1NC1CCCC1` from this test.
OUT: Yes

IN: I'd appreciate the recorded outcome for `CCCCN(c1ccccc1)c1ncnc(N)c1[N+](=O)[O-]` from this test.
OUT: Yes

IN: I'd appreciate the recorded outcome for `COc1ccc(-n2c(C)cc3cc(OC(C)=O)ccc32)cc1` from this test.
OUT: Yes

IN: I'd appreciate the recorded outcome for `CCOC(=O)Nc1nc(-c2ccccc2)c(C(=O)c2ccccc2)s1` from this test.
OUT: Yes

IN: I'd appreciate the recorded outcome for `COc1cccc(NC(=O)Nc2nnc(CC(=O)NCc3ccccc3)s2)c1` from this test.
OUT: Yes

IN: I'd appreciate the recorded outcome for `C#CCN(C[C@@H]1[C@@H](OC(=O)NCc2ccco2)[C@@H](OC(=O)NCc2ccco2)Cn2c(=O)ccc(=O)n21)S(=O)(=O)c1ccc(C)cc1` from this test.
OUT: Yes

IN: I'd appreciate the recorded outcome for `Cc1c(NC(=O)c2cc(-c3cccs3)nc3ccccc23)c(=O)n(-c2ccccc2)n1C` from this test.
OUT: Yes

IN: I'd appreciate the recorded outcome for `S=c1[nH]nc(-c2ccncc2)n1/N=C/C(Cl)=C\c1ccccc1` from this test.
OUT: Yes

IN: I'd appreciate the recorded outcome for CC(=O)c1c(O)cc2c3c1OC(C)(C)C1CCC(C)(CC31)O2 (centres undefined) from this test.
OUT: Yes

IN: I'd appreciate the recorded outcome for `CC(C)c1nc(NCCO)c(C#N)c2c1CCCC2` from this test.
OUT: Yes

IN: I'd appreciate the recorded outcome for `CCCCCCCCCc1nc2sc3c(c2c(=O)n1NC(=O)c1ccc([N+](=O)[O-])cc1)CC(C)(C)OC3` from this test.
OUT: Yes

IN: I'd appreciate the recorded outcome for `COc1ccc(Nc2nccc(-c3cccc(N)c3)n2)cc1` from this test.
OUT: Yes

IN: I'd appreciate the recorded outcome for `C=CCc1cc(S(=O)(=O)c2ccc(O)c(CC=C)c2)ccc1O` from this test.
OUT: Yes

IN: I'd appreciate the recorded outcome for `CC[C@H](CO)Nc1nc(Nc2cccc(Cl)c2)c2ncn(C(C)C)c2n1` from this test.
OUT: Yes

IN: I'd appreciate the recorded outcome for CC1Cc2ccccc2N1c1ncnc2nc[nH]c12 (centres undefined) from this test.
OUT: Yes

IN: I'd appreciate the recorded outcome for `c1csc(Cc2nn3c(-c4ccncc4)nnc3s2)c1` from this test.
OUT: Yes

IN: I'd appreciate the recorded outcome for `CCc1cc(SC#N)cc(C)c1NC(=O)CCl` from this test.
OUT: Yes

IN: I'd appreciate the recorded outcome for `Cc1cccc(NC(=O)c2nc[nH]c2C(=O)NCCCNC(=O)c2[nH]cnc2C(=O)Nc2cccc(C)c2)c1` from this test.
OUT: Yes

IN: I'd appreciate the recorded outcome for `O=C(NCCc1ccc(F)cc1)c1coc(=O)c(Br)c1` from this test.
OUT: Yes

IN: I'd appreciate the recorded outcome for Cc1c(C(=O)OCC(C)C)[nH]c2c1C(=O)CC(c1ccco1)C2 (centres undefined) from this test.
OUT: No

IN: I'd appreciate the recorded outcome for `Cc1nnc(Sc2nc3ccccc3o2)c2ccccc12` from this test.
OUT: Yes

IN: I'd appreciate the recorded outcome for `CN(C)c1ccc(-c2nn3c(-c4ccccc4Cl)nnc3s2)cc1` from this test.
OUT: Yes

IN: I'd appreciate the recorded outcome for `COc1ccc(Nc2nc(-c3ccccc3)nc3ccccc23)cc1S(=O)(=O)N1CCOCC1` from this test.
OUT: Yes

IN: I'd appreciate the recorded outcome for `O=C(Nc1cccc(Cl)c1)Nc1cc(S(=O)(=O)N2CCCCC2)ccc1Cl` from this test.
OUT: Yes

IN: I'd appreciate the recorded outcome for COc1ccc(C(C(=O)NCC2CCCO2)N(Cc2cccs2)C(=O)c2snc(C(N)=O)c2N)cc1 (centres undefined) from this test.
OUT: Yes

IN: I'd appreciate the recorded outcome for `Cc1ccc(S(=O)(=O)/N=C(\CCl)N2CCOCC2)cc1` from this test.
OUT: Yes

IN: I'd appreciate the recorded outcome for `CN(C)CCCN(C(=O)CCS(=O)(=O)c1ccccc1)c1nc2cc3c(cc2s1)OCO3` from this test.
OUT: Yes

IN: I'd appreciate the recorded outcome for `CC(=O)Oc1ccc(N(C(C)=O)S(=O)(=O)c2cccs2)c2ccccc12` from this test.
OUT: Yes

IN: I'd appreciate the recorded outcome for `CCN1CCN(Cc2ccc(NC(=O)c3ccc(C)c(NC(=O)c4cccc5[nH]ccc45)c3)cc2C(F)(F)F)CC1` from this test.
OUT: Yes
